Target: T1, human LAG3-His tagged recombinant protein (human)
T1 construct: also called human LAG3-His protein; recombinant human LAG3
T1 sequence (P18627 23-450): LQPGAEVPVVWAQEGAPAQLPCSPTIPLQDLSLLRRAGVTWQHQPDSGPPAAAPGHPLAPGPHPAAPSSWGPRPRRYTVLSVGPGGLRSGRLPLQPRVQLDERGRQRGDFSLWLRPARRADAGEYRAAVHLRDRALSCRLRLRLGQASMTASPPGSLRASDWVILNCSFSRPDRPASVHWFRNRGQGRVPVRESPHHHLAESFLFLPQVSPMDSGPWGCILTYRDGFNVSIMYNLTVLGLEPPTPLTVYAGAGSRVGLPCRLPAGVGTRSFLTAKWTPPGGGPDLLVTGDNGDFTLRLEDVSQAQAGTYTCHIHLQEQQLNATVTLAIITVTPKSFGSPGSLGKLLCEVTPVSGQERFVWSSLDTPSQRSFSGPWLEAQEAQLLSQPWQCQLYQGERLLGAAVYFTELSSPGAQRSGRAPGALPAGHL
Experiment: SPR, Biacore T200; antibody captured, human LAG3-His as analyte, 1:1 Langmuir fit; n = 1
observation-type: Kd (nM)

# binder, result-number
measured = [
    ("ADI-12126 (Q1E, M57S, M115L) IgG4 S228P/Kappa (antibody, V domains shown) VH: EVQLVQSGAEVKKPGASVKVSCKASGYTFTGYYMHWVRQAPGQGLEWMGWINANSGSTNYAQKFQGRVTMTRDTSISTAYMELSRLRSDDTAVYYCARDIYDSSDQLNVWGQGTLVTVSS VL: EIVLTQSPATLSLSPGERATLSCRASQSVSSYLAWYQQKPGQAPRLLIYDASNRATGIPARFSGSGSGTDFTLTISSLEPEDFAVYYCQQASIWPLTFGGGTKVEIKR", 0.134),
    ("ADI-12126 (Q1E, M57T, M115L) IgG4 S228P/Kappa (antibody, V domains shown) VH: EVQLVQSGAEVKKPGASVKVSCKASGYTFTGYYMHWVRQAPGQGLEWMGWINANSGTTNYAQKFQGRVTMTRDTSISTAYMELSRLRSDDTAVYYCARDIYDSSDQLNVWGQGTLVTVSS VL: EIVLTQSPATLSLSPGERATLSCRASQSVSSYLAWYQQKPGQAPRLLIYDASNRATGIPARFSGSGSGTDFTLTISSLEPEDFAVYYCQQASIWPLTFGGGTKVEIKR", 0.066),
    ("ADI-12126 (Q1E, M57Y, M115L) IgG4 S228P/Kappa (antibody, V domains shown) VH: EVQLVQSGAEVKKPGASVKVSCKASGYTFTGYYMHWVRQAPGQGLEWMGWINANSGYTNYAQKFQGRVTMTRDTSISTAYMELSRLRSDDTAVYYCARDIYDSSDQLNVWGQGTLVTVSS VL: EIVLTQSPATLSLSPGERATLSCRASQSVSSYLAWYQQKPGQAPRLLIYDASNRATGIPARFSGSGSGTDFTLTISSLEPEDFAVYYCQQASIWPLTFGGGTKVEIKR", 0.032),
    ("ADI-12126 (Q1E, M57V, M115L) IgG4 S228P/Kappa (antibody, V domains shown) VH: EVQLVQSGAEVKKPGASVKVSCKASGYTFTGYYMHWVRQAPGQGLEWMGWINANSGVTNYAQKFQGRVTMTRDTSISTAYMELSRLRSDDTAVYYCARDIYDSSDQLNVWGQGTLVTVSS VL: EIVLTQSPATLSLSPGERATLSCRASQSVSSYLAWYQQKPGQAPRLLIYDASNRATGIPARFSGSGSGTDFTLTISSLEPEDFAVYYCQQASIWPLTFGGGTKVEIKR", 0.282),
]

The values you see were collected from patent US20180369375A1.
